- Test system: 636577-100-R-J1-PDC complex spheroid viability
- EXPERIMENTAL PROTOCOL: Anticancer human tumor 636577-100-R-J1-PDC patient-derived endometrial adenocarcinoma cell line growth inhibition [GQUAD]
- MEASUREMENT PARAMETERS: curve of first compound; second compound 0.316 µM
VALUE TYPE: IC50

## Input Entry under review: O=C(NO)c1cnc(N2CCN(S(=O)(=O)c3ccc4ccccc4c3)CC2)nc1 + CN(C)c1ccc(Nc2c3ccc(NC(=O)CCN4CCCC4)cc3nc3cc(NC(=O)CCN4CCCC4)ccc23)cc1 . Reported IC50?
## Output < 31.6 nM

## Input Entry under review: Cc1[nH]c2ccccc2c1CCNCc1ccc(/C=C/C(=O)NO)cc1 + Cc1[nH]c2ccc(F)cc2c1-c1nc2c3cccnc3c3ncccc3c2[nH]1 . Reported IC50?
## Output 2.57 nM

## Input Entry under review: COc1cccc2c1C(=O)c1c(O)c3c(c(O)c1C2=O)CC(O)(C(=O)CO)CC3OC1CC(N)C(O)C(C)O1 (stereo not given) + CN(C)c1ccc(Nc2c3ccc(NC(=O)CCN4CCCC4)cc3nc3cc(NC(=O)CCN4CCCC4)ccc23)cc1 . Reported IC50?
## Output < 31.6 nM

## Input Entry under review: Nc1ccn(C2OC(CO)C(O)C2(F)F)c(=O)n1 (stereo not given) + Cc1cnc(CNC(=O)c2c(=O)c3ccc(N4CCCN(C)CC4)nc3n3c2sc2ccccc23)cn1 . Reported IC50?
## Output < 31.6 nM

## Input Entry under review: COc1cc(C2c3cc4c(cc3C(OC3OC5COC(C)OC5C(O)C3O)C3COC(=O)C23)OCO4)cc(OC)c1O (stereo not given) + Cc1[nH]c2ccc(F)cc2c1-c1nc2c3cccnc3c3ncccc3c2[nH]1 . Reported IC50?
## Output 85.8 nM

## Input Entry under review: CCCS(=O)(=O)Nc1ccc(F)c(C(=O)c2c[nH]c3ncc(-c4ccc(Cl)cc4)cc23)c1F + CN(C)c1ccc(Nc2c3ccc(NC(=O)CCN4CCCC4)cc3nc3cc(NC(=O)CCN4CCCC4)ccc23)cc1 . Reported IC50?
## Output 6630 nM

## Input Entry under review: CC(=O)O[C@H]1C(=O)[C@@]2(C)[C@H]([C@H](OC(=O)c3ccccc3)[C@]3(O)C[C@H](OC(=O)[C@H](O)[C@@H](NC(=O)c4ccccc4)c4ccccc4)C(C)=C1C3(C)C)[C@]1(OC(C)=O)CO[C@@H]1C[C@@H]2O + CN(C)c1ccc(Nc2c3ccc(NC(=O)CCN4CCCC4)cc3nc3cc(NC(=O)CCN4CCCC4)ccc23)cc1 . Reported IC50?
## Output < 31.6 nM

## Input Entry under review: CC(C)n1c(=O)n(C)c2cnc3cc(F)c(-c4ccc(OCCCN5CCCCC5)nc4)cc3c21 + Cc1[nH]c2ccc(F)cc2c1-c1nc2c3cccnc3c3ncccc3c2[nH]1 . Reported IC50?
## Output 7080 nM

## Input Entry under review: CC1COCCN1c1cc(C2(O)CC3CCC(C2)O3)c2cnn(-c3ccn[nH]3)c2n1 (stereo not given) + CN(C)c1ccc(Nc2c3ccc(NC(=O)CCN4CCCC4)cc3nc3cc(NC(=O)CCN4CCCC4)ccc23)cc1 . Reported IC50?
## Output < 31.6 nM

## Input Entry under review: Cn1ncnc1[C@H]1c2n[nH]c(=O)c3cc(F)cc(c23)N[C@@H]1c1ccc(F)cc1 + Cc1[nH]c2ccc(F)cc2c1-c1nc2c3cccnc3c3ncccc3c2[nH]1 . Reported IC50?
## Output 34.5 nM

====

- Tested on: 636577-100-R-J1-PDC complex spheroid viability
- EXPERIMENTAL PROTOCOL: Anticancer human tumor 636577-100-R-J1-PDC cell line growth inhibition [GQUAD]; active means viability on the fitted dose curve at most 10% of control; inactive means the rest;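 note: viability read after seven days of drug exposure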
- MEASUREMENT PARAMETERS: second compound 0.1 µM; first compound 3.16 µM
Output constraint: value belongs to active, inactive

## Input Tell me the recorded outcome of this test for C=CC(=O)N1CCN(c2nc(=O)n(-c3c(C)ccnc3C(C)C)c3nc(-c4c(O)cccc4F)c(F)cc23)C(C)C1 (stereo not given) + CN(C)c1ccc(Nc2c3ccc(NC(=O)CCN4CCCC4)cc3nc3cc(NC(=O)CCN4CCCC4)ccc23)cc1 .
## Output inactive

## Input Tell me the recorded outcome of this test for COc1cccc2c1C(=O)c1c(O)c3c(c(O)c1C2=O)CC(O)(C(=O)CO)CC3OC1CC(N)C(O)C(C)O1 (stereo not given) + CN(C)c1ccc(Nc2c3ccc(NC(=O)CCN4CCCC4)cc3nc3cc(NC(=O)CCN4CCCC4)ccc23)cc1 .
## Output active

## Input Tell me the recorded outcome of this test for CCCS(=O)(=O)Nc1ccc(F)c(C(=O)c2c[nH]c3ncc(-c4ccc(Cl)cc4)cc23)c1F + Cc1[nH]c2ccc(F)cc2c1-c1nc2c3cccnc3c3ncccc3c2[nH]1 .
## Output inactive

## Input Tell me the recorded outcome of this test for CC(=O)O[C@H]1C(=O)[C@@]2(C)[C@H]([C@H](OC(=O)c3ccccc3)[C@]3(O)C[C@H](OC(=O)[C@H](O)[C@@H](NC(=O)c4ccccc4)c4ccccc4)C(C)=C1C3(C)C)[C@]1(OC(C)=O)CO[C@@H]1C[C@@H]2O + Cc1[nH]c2ccc(F)cc2c1-c1nc2c3cccnc3c3ncccc3c2[nH]1 .
## Output inactive

## Input Tell me the recorded outcome of this test for COc1ccc([C@@H](O)c2cc(-c3ncnc4cc(N5CCOCC5)ccc34)c(F)cc2Cl)nn1 + CN(C)c1ccc(Nc2c3ccc(NC(=O)CCN4CCCC4)cc3nc3cc(NC(=O)CCN4CCCC4)ccc23)cc1 .
## Output inactive

====

- System: 636577-100-R-J1-PDC complex spheroid viability
- EXPERIMENTAL PROTOCOL: Anticancer human tumor 636577-100-R-J1-PDC cell line growth inhibition [GQUAD]; active = viability on the fitted dose curve at most 10% of control; inactive = the rest;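 note: viability read after seven days of drug exposure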
- MEASUREMENT PARAMETERS: second compound 0.1 µM; first compound 3.16 µM
Output constraint: value belongs to active, inactive

## Input Tell me the recorded outcome of this test for COc1ncnc(C2CC2)c1-c1ncc2cnn(Cc3ccc(-c4nc(C(F)(F)F)cn4C(C)C)cc3)c2n1 + Cc1cnc(CNC(=O)c2c(=O)c3ccc(N4CCCN(C)CC4)nc3n3c2sc2ccccc23)cn1 .
## Output inactive

## Input Tell me the recorded outcome of this test for O=C(NO)c1cnc(N2CCN(S(=O)(=O)c3ccc4ccccc4c3)CC2)nc1 + CN(C)c1ccc(Nc2c3ccc(NC(=O)CCN4CCCC4)cc3nc3cc(NC(=O)CCN4CCCC4)ccc23)cc1 .
## Output active

## Input Tell me the recorded outcome of this test for C#Cc1c(F)ccc2cc(O)cc(-c3ncc4c(N5CC6CCC(C5)N6)nc(OCC56CCCN5CC(F)C6)nc4c3F)c12 (centres undefined) + CN(C)c1ccc(Nc2c3ccc(NC(=O)CCN4CCCC4)cc3nc3cc(NC(=O)CCN4CCCC4)ccc23)cc1 .
## Output inactive

## Input Tell me the recorded outcome of this test for CC(=O)O[C@H]1C(=O)[C@@]2(C)[C@H]([C@H](OC(=O)c3ccccc3)[C@]3(O)C[C@H](OC(=O)[C@H](O)[C@@H](NC(=O)c4ccccc4)c4ccccc4)C(C)=C1C3(C)C)[C@]1(OC(C)=O)CO[C@@H]1C[C@@H]2O + CN(C)c1ccc(Nc2c3ccc(NC(=O)CCN4CCCC4)cc3nc3cc(NC(=O)CCN4CCCC4)ccc23)cc1 .
## Output active

====

Would you mind telling me the reported viability, T/C of each entry?
- Tested on: 636577-100-R-J1-PDC complex spheroid viability
- EXPERIMENTAL PROTOCOL: Anticancer human tumor 636577-100-R-J1-PDC cell line growth inhibition [GQUAD];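 note: viability read after seven days of drug exposure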;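 for viability, T/C: luminescence signal used as a proxy for viable cells; 100% = DMSO vehicle control wells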
- MEASUREMENT PARAMETERS: second compound 10 µM; first compound 0.316 µM; stronger effect = lower value
# value in %; strip the unit string

## Input Entry under review: COc1ncnc(C2CC2)c1-c1ncc2cnn(Cc3ccc(-c4nc(C(F)(F)F)cn4C(C)C)cc3)c2n1 + CN(C)c1ccc(Nc2c3ccc(NC(=O)CCN4CCCC4)cc3nc3cc(NC(=O)CCN4CCCC4)ccc23)cc1 . Reported viability, T/C?
## Output 3.91

## Input Entry under review: C=CCn1c(=O)c2cnc(Nc3ccc(N4CCN(C)CC4)cc3)nc2n1-c1cccc(C(C)(C)O)n1 + CN(C)c1ccc(Nc2c3ccc(NC(=O)CCN4CCCC4)cc3nc3cc(NC(=O)CCN4CCCC4)ccc23)cc1 . Reported viability, T/C?
## Output 3.79

## Input Entry under review: C=CC(=O)N1CCN(c2nc(=O)n(-c3c(C)ccnc3C(C)C)c3nc(-c4c(O)cccc4F)c(F)cc23)C(C)C1 (stereo not given) + CN(C)c1ccc(Nc2c3ccc(NC(=O)CCN4CCCC4)cc3nc3cc(NC(=O)CCN4CCCC4)ccc23)cc1 . Reported viability, T/C?
## Output 6.86

## Input Entry under review: COc1cccc2c1C(=O)c1c(O)c3c(c(O)c1C2=O)CC(O)(C(=O)CO)CC3OC1CC(N)C(O)C(C)O1 (stereo not given) + Cc1cnc(CNC(=O)c2c(=O)c3ccc(N4CCCN(C)CC4)nc3n3c2sc2ccccc23)cn1 . Reported viability, T/C?
## Output 15.2

## Input Entry under review: Cc1cccc(N(C)C(=O)C2C(O)CCN2c2nc(C)cc(C(F)(F)F)c2C#N)c1 (stereo not given) + Cc1cnc(CNC(=O)c2c(=O)c3ccc(N4CCCN(C)CC4)nc3n3c2sc2ccccc23)cn1 . Reported viability, T/C?
## Output 21
